QUANTITY: melting point

Answered examples (5):
State the recorded melting point for this entry: N[C@@H](CO)c1ccccc1
75 to 79 °C

// same read-out, input: CC(=O)Nc1sc2c(c1C#N)CCCC2
215 to 217 °C

// same read-out, input: Cc1nc(-c2ccc(Br)cc2)cs1
130 to 135 °C

// same read-out, input: CSc1ncccc1C(=O)NC(CC(C)C)C(=O)O (stereo not drawn)
143 to 146 °C

// same read-out, input: O=C(O)CN(CC(=O)O)c1ccccc1OCCOc1ccccc1N(CC(=O)O)CC(=O)O
177 to 179 °C

---
State the recorded melting point for this entry: O=C(c1ccccc1)c1cnc2ccccn2c1=O
152 to 153 °C

// same read-out, input: Nc1ncncn1
219 to 224 °C

// same read-out, input: O=C(Oc1ccccc1)c1cccc(C(=O)Oc2ccccc2)c1
136 to 139 °C

// same read-out, input: FC(F)(F)C(F)(F)C(F)(F)C(F)(F)C(F)(F)C(F)(F)C(F)(F)C(F)(F)C(F)(F)C(F)(F)CCI
82 to 83 °C

// same read-out, input: Clc1cc(Cl)nc(Cc2ccccc2)n1
56 to 57 °C

###

QUANTITY: melting point (°C)

State the recorded melting point for this entry: ON=Cc1c(F)cccc1Cl
133

// same read-out, input: N#Cc1cccc(CBr)c1
94

// same read-out, input: COc1cc(C=C(C(=O)O)C(=Cc2cc(OC)c(OC)c(OC)c2)C(=O)O)cc(OC)c1OC
229

// same read-out, input: O=C(O)c1nsc(Cl)c1Cl
169

// same read-out, input: CC(N)CC(=O)O (stereo not drawn)
193

(I) Cc1ccncc1C(=O)NN
(II) C[N+](C)(C)CC(=O)[O-]
When the recorded melting point values are compared, which is smaller: that of I or that of II ? Which one? Tell me its label.
I

###

QUANTITY: melting point

State the recorded melting point for this entry: O=C(Nc1ccccc1)c1cccc(S(=O)(=O)Nc2ccccc2)c1
212 to 215 °C

// same read-out, input: Brc1ccc2nccnc2c1
54 to 55 °C

// same read-out, input: Nc1ccc(Br)c([N+](=O)[O-])c1
128 to 132 °C

// same read-out, input: COc1ccc(C(=O)c2ccc(-c3ccccc3)cc2)cc1OC
107 to 109 °C

// same read-out, input: O=[N+]([O-])c1ccc(S(=O)(=O)N2CCOCC2)cc1
173 to 175 °C

###

QUANTITY: melting point (°C)

State the recorded melting point for this entry: NC(=O)c1nn(-c2ccccc2)c2ncnc(N)c12
295

// same read-out, input: CCC(C)c1ccccc1O (stereo not given)
16

// same read-out, input: CN(N=O)c1ccc(N=O)cc1
101

// same read-out, input: CC(C)C[C@@H](N)C(=O)O
300

// same read-out, input: O=C(CF)c1ccccc1
29

(P) c1cnc(N2CCN(Cc3ccc4c(c3)OCO4)CC2)nc1
(Q) CC1CCC(C(C)C)C(OCC(=O)O)C1 (stereo not given)
When the recorded melting point values are compared, which is smaller: that of P or that of Q ? Which one? Tell me its label.
Q
(Q: 54 °C, P: 98 °C)

(P) Cc1cc(CC(C)CC(C)(C)C)n(O)c(=O)c1 (stereo not given)
(Q) OCc1cc(C(F)(F)F)cc(C(F)(F)F)c1
When the recorded melting point values are compared, which is smaller: that of P or that of Q ? Which one? Tell me its label.
Q

(a) Nc1ccncc1C=O
(b) COC(=O)C=Cc1ccccc1
When the recorded melting point values are compared, which is smaller: that of a or that of b ? Which one? Tell me its label.
b
(b: 36 °C, a: 110 °C)

(I) O=C1C(c2ccccc2)C(c2ccccc2)N1c1ccccc1 (stereo not given)
(II) CC(=O)Oc1ccc2ccccc2c1
(III) Nc1c(O)cccc1C(=O)O
(IV) CCOC(=O)C(C)(C)C(=O)OCC
(V) C1CCCSCC1
Sort ascending by melting point. List the labels according to the requested ordering.
IV, V, II, I, III
